system: NCI-H322M lung; test: NCI-60 one-dose screen, 48 h; settings: 10 µM unless noted
About 83,000 compounds went through this panel and 20% of them were active in at least one assay; those are over-represented in the sample as a whole. Active and inactive are the calls of the source. How the source made its calls: active means growth percent below 10; inactive means the rest. Where a SMILES comes first, the peptide text is derived from it. [ ]: non-standard residue; d: D form. ξ: configuration not given here. ξD = NC(CC(=O)O)C(=O)O
Returns: one label drawn from active, inactive

Consider the following illustrative entries.
I'd appreciate the recorded outcome for `COc1c(C)c2c(c(O)c1C/C=C(\C)CCC(=O)O)C(=O)OC2` from this test. inactive

I'd appreciate the recorded outcome for NCC(=O)NC(CC(=O)O)C(=O)O (configuration not stated) (H-Gly-[ξD]-OH) from this test. inactive

I'd appreciate the recorded outcome for `N#CC(=C1SCS1)[N+](=O)[O-]` from this test. inactive

I'd appreciate the recorded outcome for `O=C(Cc1ccccc1)C(F)(F)F` from this test. inactive

I'd appreciate the recorded outcome for `O=S(=O)(O)c1cnccn1` from this test. inactive

Next:
I'd appreciate the recorded outcome for `N#CCc1cccc2ccccc12` from this test. inactive

I'd appreciate the recorded outcome for CCOC(=O)C1(C)CCCC1N (configuration not stated) from this test. inactive

I'd appreciate the recorded outcome for `O=C1C(=O)c2cc([N+](=O)[O-])ccc2-c2ccccc21` from this test. inactive

I'd appreciate the recorded outcome for `C/C(=N/NC(N)=S)c1ccc(C)cc1` from this test. inactive

I'd appreciate the recorded outcome for CCCc1cc(=O)oc2c3c(c4c(c12)OC(C)(C)CC4)OC(C)[C@H](C)[C@@H]3O (some centres not stated) from this test. inactive

I'd appreciate the recorded outcome for `CCCC[n+]1c(/C=C\c2c(OC)cc(OC)cc2OC)ccc2ccccc21` from this test. active

I'd appreciate the recorded outcome for `Nc1cc(-c2ccccc2)ccc1O` from this test. inactive

I'd appreciate the recorded outcome for `O=C1c2ccccc2C(=O)c2c(O)c(Cl)cc(O)c21` from this test. inactive

I'd appreciate the recorded outcome for `O=[N+]([O-])c1ccc(N2CCN(Cc3ccccc3)CC2)c2c1no[n+]2[O-]` from this test. inactive

I'd appreciate the recorded outcome for `Cc1cc(C(=O)c2ccc(Cl)cc2)ccc1O` from this test. inactive

====

tested on: NCI-H460 lung; assay: NCI-60 one-dose screen, 48 h; conditions: 10 µM unless noted
About 83,000 compounds went through this panel and 20% of them were active in at least one assay; those are over-represented in the sample as a whole. Calls of active or inactive are those of the source. How the source made its calls: active means growth percent below 10; inactive means the rest.
Returns: one label drawn from Y (active), N (inactive)

I'd appreciate the recorded outcome for OC(c1cc(C23CC4CC(CC(C4)C2)C3)nc2c(Cl)cc(Cl)cc12)C1CCCCN1 (stereo not drawn) from this test. Y

I'd appreciate the recorded outcome for CC1(C)OC2C(COC(c3ccccc3)(c3ccccc3)c3ccccc3)OC(c3c[nH]c4c(N)ncnc34)C2O1 (stereo not drawn) from this test. N

I'd appreciate the recorded outcome for `N=C1C=C(N)C(=O)c2ccccc21` from this test. Y

====

system: MALME-3M melanoma; assay: NCI-60 one-dose screen, 48 h; conditions: 10 µM unless noted
Compounds without any hit were thinned out: in the full panel of roughly 83,000, 20% have a hit. The source made the active and inactive calls. How the source made its calls: active means growth percent below 10; inactive means the rest.
Returns: one label drawn from true (1) = active, false (0) = inactive

I'd appreciate the recorded outcome for `S=C(S)OCN1CCOCC1` from this test. false (0)

I'd appreciate the recorded outcome for CCN(CC)CC(O)CNc1ccc(NCC2CO2)c2c1C(=O)c1ccccc1C2=O (centres undefined) from this test. true (1)

I'd appreciate the recorded outcome for `COC(=O)C(=[N+]=[N-])C(=O)c1ccc([N+](=O)[O-])o1` from this test. false (0)

I'd appreciate the recorded outcome for `O=C(c1ccccc1)c1ccc(O)c2ncccc12` from this test. false (0)

I'd appreciate the recorded outcome for `Cn1c(-c2ccccc2)c(/C=C/C2=[N+](C)c3ccccc3C2(C)C)c2ccccc21` from this test. true (1)

Next:
I'd appreciate the recorded outcome for c1ccc(C2NCCNC2c2ccccc2)cc1 (centres undefined) from this test. false (0)

I'd appreciate the recorded outcome for CCN(CC)CC(O)c1cc(-c2ccc(Cl)cc2)nc2cc(Cl)ccc12 (centres undefined) from this test. false (0)

I'd appreciate the recorded outcome for `COC(=O)c1nc(=S)[nH]c(C(=O)OC)c1C(=O)c1ccc(Cl)c(Cl)c1` from this test. false (0)

I'd appreciate the recorded outcome for `O=C(CBr)c1ccc(OC(=O)c2ccccc2)cc1` from this test. false (0)

I'd appreciate the recorded outcome for Nc1nc2ncc(CNc3ccc(C(=O)NC(CCC(=O)NC(CCC(=O)NC(CCC(=O)NC(CCC(=O)NC(CCC(=O)O)C(=O)O)C(=O)O)C(=O)O)C(=O)O)C(=O)O)cc3)nc2c(=O)[nH]1 (centres undefined) from this test. false (0)

I'd appreciate the recorded outcome for CCC1CCCCN1C(=S)N/N=C(\C)c1ccccn1 (centres undefined) from this test. true (1)

I'd appreciate the recorded outcome for `O=C(/C=C/c1ccccc1)c1ccccc1O` from this test. false (0)

I'd appreciate the recorded outcome for `C[n+]1ccccc1C[n+]1ccccc1` from this test. false (0)

I'd appreciate the recorded outcome for NC(CS/C(Cl)=C/Cl)C(=O)O (centres undefined) from this test. false (0)

I'd appreciate the recorded outcome for `CCOC(=O)NC(/C=C/c1ccccc1)NC(=O)OCC` from this test. false (0)

====

test system: UACC-257 melanoma; assay: NCI-60 one-dose screen, 48 h; settings: 10 µM unless noted
This is part of a sample that, as a whole, favours compounds with a hit. Of some 83,000 tested, about 20% had one in any assay. Activity calls are given as the source filed them. How the source made its calls: active means growth percent below 10; inactive means the rest. *1 amine or outer side, *2 acyl side, *3 side chain or, on linkers, in order; H or OH if unused. Where a SMILES comes first, the peptide text is derived from it. Bridges are numbered along the chain shown (N, C = ends). Roman numbers before positions name the chains, in order. [ ]: non-standard residue; d: D form. Actinocin(1to9) = Cc1c2oc3c(C)ccc(C(=O)[*:2])c3nc-2c(C(=O)[*:1])c(N)c1=O; NMeV = CN[CH](C(=O)O)C(C)C; Sar = CNCC(=O)O
Returns: one label drawn from active, inactive

Consider the following illustrative entries.
I'd appreciate the recorded outcome for Oc1c(C(Nc2ccccc2)c2ccccc2)ccc2cccnc12 (stereo not drawn) from this test. inactive

I'd appreciate the recorded outcome for CC(C)=CCCC(C)C1=C(O)C(=O)C(C)=CC1=O (stereo not drawn) from this test. inactive

I'd appreciate the recorded outcome for `O=C(O)c1cccc2cccc(-c3c4ccc(=O)c(O)c-4oc4c(O)c(O)ccc34)c12` from this test. inactive

I'd appreciate the recorded outcome for `COc1cc(NC(=O)C2=C(C)NC(C)=C(C(=O)Nc3cc(OC)c(Cl)cc3OC)C2c2cccc([N+](=O)[O-])c2)c(OC)cc1Cl` from this test. inactive

I'd appreciate the recorded outcome for CC(/C=N/NC(N)=S)Cc1ccc(C(C)C)cc1 (stereo not drawn) from this test. inactive

Next:
I'd appreciate the recorded outcome for `CN(C)CC(C)(CN(C)C)C(=O)/C=C/c1c(Cl)cccc1Cl` from this test. inactive

I'd appreciate the recorded outcome for `COc1c(C)c2c(c(O)c1C/C=C(\C)CCC(=O)O)C(=O)OC2` from this test. inactive

I'd appreciate the recorded outcome for `CCCCOS(=O)(=O)c1ccccc1` from this test. inactive

I'd appreciate the recorded outcome for `Oc1c(Cl)cc(Cl)cc1C(c1cc(Cl)cc(Cl)c1O)C(Cl)(Cl)Cl` from this test. active

I'd appreciate the recorded outcome for CCN(CC)CCNC(Cc1ccccc1)c1ccc(OCc2ccccc2)cc1 (stereo not drawn) from this test. active

I'd appreciate the recorded outcome for `CN=C(N)N/N=C(\C)c1ccc2c(c1)Cc1ccccc1-2` from this test. active

I'd appreciate the recorded outcome for `S=C=Nc1ccc(N2CCOCC2)cc1` from this test. inactive

I'd appreciate the recorded outcome for CCC(C)C1NC(=O)C(NC(=O)c2c3nc4c(C(=O)NC5C(=O)NC(C(C)CC)C(=O)N6CCCC6C(=O)N(C)CC(=O)N(C)C(C(C)C)C(=O)OC5C)ccc(C)c4oc-3c(C)c(=O)c2N)C(C)OC(=O)C(C(C)C)N(C)C(=O)CN(C)C(=O)C2CCCN2C1=O (stereo not drawn) (I: TIP[Sar][NMeV] / II: TIP[Sar][NMeV]; ester I:1-I:C, II:1-II:C; linker I:N-II:N via Actinocin(1to9); configuration not given here) from this test. active

====

tested on: DU-145 prostate; assay: NCI-60 one-dose screen, 48 h (100 = growth as untreated, 0 = no growth, -100 = all killed); details: 10 µM unless noted
Compounds without any hit were thinned out: in the full panel of roughly 83,000, 20% have a hit.
Measurement Kind: growth (%)
# number only, unit % dropped from output

molecule `C/C=C/c1cc2c(c(=O)o1)C(=O)[C@@H](O)[C@H](C)O2` , growth observed: 27.6

molecule `Cc1nn(CCO)c(C)c1N=[N+]([O-])c1c(C)nn(CCO)c1C` , growth observed: -9.05

molecule `O=C(O)c1ccc2c(c1)C(=O)c1ccccc1C2=O` , growth observed: 98.5

molecule `COC(=O)[C@]1(C)CCC[C@]2(C)c3ccc(C(C)C)cc3C(=O)[C@@H](Br)[C@@H]12` , growth observed: 102

molecule Oc1c(C(Nc2ccccc2)c2ccccc2)ccc2cccnc12 (stereo not drawn) , growth observed: 57.8

molecule CCCCCCCCCCCC(=O)OC(C)C(=O)NCCCC (stereo not drawn) , growth observed: 105

molecule `CCCCCCCCCCCC[n+]1ccc(CCCCCCCCC)cc1` , growth observed: -83.6

molecule `CC(=O)c1ccc2c(c1)CCc1ccccc1-2` , growth observed: 115

molecule `O=C(/C=C/C(Cl)(Cl)Cl)Nc1ccc(Cl)cc1` , growth observed: 97.7

molecule `O=C(CBr)c1ccc(OC(=O)c2ccccc2)cc1` , growth observed: 114

Next:
molecule `CCCCCCCCCCCCCCCCSC(=NCC)NCC` , growth observed: 36

molecule `CCOC(=O)C1=C(C(=O)c2ccccc2)C(c2cccc([N+](=O)[O-])c2)C(C(=O)c2ccccc2)=C(C(=O)OCC)N1` , growth observed: 97

molecule `CCCCCC[C@@H](O)C/C=C\CCCCCCCC(=O)OCCOC` , growth observed: 116

molecule CC(=O)C1Cc2ccccc2C1=O (stereo not drawn) , growth observed: 106

molecule `O=C1C=CC(=O)N1c1cc(Cl)c(Cl)cc1Cl` , growth observed: 109

molecule `COc1ccc2nc3cc(Cl)ccc3c(NCCCCCN3CCCCC3)c2c1` , growth observed: -3.46

molecule `O=[N+]([O-])c1ccc(N2CCN(Cc3ccccc3)CC2)c2c1no[n+]2[O-]` , growth observed: 26.8

molecule `O=C(Nc1cccc(C(F)(F)F)c1)Oc1ccc(Cl)c2cccnc12` , growth observed: 39.6
